target: histamine H1 receptor (Homo sapiens, UniProt P35367); construct: expressed in transfected cells; experiment: G-protein-independent signal transduction, β-arrestin signaling; type: cell-based; conditions: H1, β-arrestin signaling; read-out: IC50, functional antagonist
Sequence (P35367 whole entry): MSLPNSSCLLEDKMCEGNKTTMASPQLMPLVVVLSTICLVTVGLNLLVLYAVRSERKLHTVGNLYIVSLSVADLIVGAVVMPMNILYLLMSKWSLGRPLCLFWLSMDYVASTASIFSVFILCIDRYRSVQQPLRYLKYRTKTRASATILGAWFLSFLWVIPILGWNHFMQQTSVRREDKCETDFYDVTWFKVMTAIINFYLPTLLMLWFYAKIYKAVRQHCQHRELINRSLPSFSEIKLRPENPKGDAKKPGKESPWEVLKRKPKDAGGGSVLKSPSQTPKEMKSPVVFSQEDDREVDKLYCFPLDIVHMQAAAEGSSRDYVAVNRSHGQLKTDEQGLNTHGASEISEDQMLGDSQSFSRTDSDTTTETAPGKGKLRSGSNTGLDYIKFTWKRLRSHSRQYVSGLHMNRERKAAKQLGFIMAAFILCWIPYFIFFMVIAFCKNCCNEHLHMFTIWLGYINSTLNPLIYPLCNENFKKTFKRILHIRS
Reported Endpoint: pIC50
Formally, pIC50 is defined as -log10 of the concentration c, with c in mol/L.

{"columns": ["Compound", "Numeric Readout"],
 "data": [
  ["CN(C)CCC=C1c2ccccc2C=Cc2ccccc21 [cyclobenzaprine]", 8.57]
]}

Here's the next entry for you.
(Q) Can you share its pIC50? I mean this compound: CNCCC=C1c2ccccc2C=Cc2ccccc21 [norcyclobenzaprine]
(A) 8.21
